System: HT29 colon
ASSAY TEXT: NCI tumour cell line growth inhibition, 48 h
Below: a set of entries, each annotated with reported GI50.

# returns recorded GI50 (system: HT29 colon) for `COc1ccc2[nH]c(=O)c(/C=C/C(=O)/C=C/c3ccc(O)c(OC)c3)cc2c1`
0.777 µM

Same question, `O=Cc1ccc(Oc2c3ccccc3nc3occc23)cc1` this time
23.1 µM

Same question, `COc1cc(Cn2ccc3c2-c2oncc2CC3)cc(OC)c1` this time
3.17 µM

Same question, `O=C1c2cc3c(cc2[C@@H]2[C@H]1c1ccc([N+](=O)[O-])cc1C(=O)N2CCCCl)OCO3` this time
< 0.01 µM

Same question, `O=C(NNc1ccccc1)OCc1ccccc1` this time
54.6 µM

Same question, `COc1ccc(-c2cc(-c3cn[nH]c3-c3ccccn3)ccn2)cc1` this time
> 25 µM

Same question, `O=c1oc2ccc(Cl)cc2c(=O)n1-c1cc(C(F)(F)F)cc(C(F)(F)F)c1` this time
2.12 µM

Same question, `O=C(NC(=S)NNC(=S)NNc1ccccc1)c1ccccc1` this time
15.1 µM

Same question, `CNNC(=N\S(=O)(=O)c1cc(C(=O)Nc2ccc(Cl)cc2)c(Cl)cc1SCc1ccccc1)/N=C/c1ccc([N+](=O)[O-])s1` this time
> 28.2 µM

Same question, O=C(Nc1ccccc1)NS(=O)(=O)c1ccc(N2N=C3c4ccccc4CC3C2c2ccccn2)cc1 (stereo not given) this time
37.9 µM

Ref: PubChem BioAssay (NCI)
